Test system: U251 CNS
assay-notes: NCI-60 one-dose screen, 48 h (100 = growth as untreated, 0 = no growth, -100 = all killed)
experimental-parameters: 10 µM unless noted
Compounds without any hit were thinned out: in the full panel of roughly 83,000, 20% have a hit.
endpoint-name: growth (%)
Enter your answer as a number in %; do not include the unit.

Using known records, supply growth for `CN1CCc2nc3sc(C(N)=O)c(N)c3c(-c3cccs3)c2C1`
27.4

Using known records, supply growth for COc1ccc(C(O)c2cc3c(N)c(C(=O)Nc4cccc(Br)c4)sc3nc2C)cc1 (centres undefined)
15.7

Using known records, supply growth for `CNC(=O)c1ccccc1Oc1nc(Nc2cc(OC)c(OC)c(OC)c2)ncc1Br`
57.6

Using known records, supply growth for `COc1c(C(=O)Nc2ccc(C)c(Br)c2)ccc2ccccc12`
96.2

Using known records, supply growth for `COc1ccc(/C=C(\C#N)n2nnc3ccc(Cl)cc32)cc1`
61.7

Using known records, supply growth for `O=C1Nc2ccccc2/C1=C/c1nc2ccccc2c(=O)[nH]1`
96.3

Using known records, supply growth for `CSc1nc2ccccc2cc1/C=C1/C=C(c2ccccc2)NC1=O`
78.8

Using known records, supply growth for `COc1ccc(CNc2c3ccccc3nc3ccccc23)cc1`
36.5

Using known records, supply growth for COc1cc(C2c3cc(OC(C)=O)c(OC)cc3CC3C(=O)OCC32)ccc1OC(C)=O (centres undefined)
92.6

Using known records, supply growth for `CC(=O)n1nc(C(=O)OC(C)(C)c2ccccc2)c2ccccc21`
98.6

Using known records, supply growth for `COc1ccc(-c2ccc(=O)oc2-c2cc(OC)c(OC)c(OC)c2)cc1O`
19.8

Using known records, supply growth for `O=C(Nc1ccccc1O)c1ccc(CNC(=O)c2sccc2Nc2ccnc(C(F)(F)F)c2)cc1`
40.6

Using known records, supply growth for `O=C(N/N=C/c1c(Cl)cccc1Cl)c1cccnc1Nc1cccc(C(F)(F)F)c1`
16.4

Using known records, supply growth for `CCCCC1=C(P(=O)(O)O)N[C@H](C(=O)O)CS1`
94.2

* * *

Tested on: T-47D breast
assay-notes: NCI-60 one-dose screen, 48 h (100 = growth as untreated, 0 = no growth, -100 = all killed)
experimental-parameters: 10 µM unless noted
About 83,000 compounds went through this panel and 20% of them were active in at least one assay; those are over-represented in the sample as a whole.
Field: growth. Provide a value for each of the molecules that follow.
Enter your answer as a number in %; do not include the unit.

Using known records, supply growth for `Nc1c(C(=O)Nc2ccccc2C(F)(F)F)sc2nc3c(cc12)CCC3`
67.4

Using known records, supply growth for `N#Cc1c(-c2ccccc2)cc(-c2ccc(Nc3nc(Nc4ccc(Cl)cc4)nc(Nc4ccc(Cl)cc4)n3)cc2)nc1N`
-39.5

Using known records, supply growth for Cc1nc2sc(C(=O)Nc3cccc4ccccc34)c(N)c2cc1C(O)c1ccccc1 (centres undefined)
45.4

Using known records, supply growth for `S=c1sc2c(Cl)nc(-c3cccnc3)nc2n1-c1ccccc1`
-14.5

* * *

Test system: SK-MEL-5 melanoma
assay-notes: NCI-60 one-dose screen, 48 h (100 = growth as untreated, 0 = no growth, -100 = all killed)
experimental-parameters: 10 µM unless noted
Compounds without any hit were thinned out: in the full panel of roughly 83,000, 20% have a hit.
Field: growth. Provide a value for each of the compounds that follow.
Enter your answer as a number in %; do not include the unit.

Using known records, supply growth for `O=C1Nc2ccccc2/C1=C/c1cccn1CCCCn1c2ccccc2c(=O)c2ccccc21`
38.6

Using known records, supply growth for `COc1ccc(/C=C/C(=O)c2ccc(Nc3ccnc4cc(Cl)ccc34)cc2)cc1`
67.8

Using known records, supply growth for `Nc1n[nH]c2cccc(C#Cc3cccc(NC(=O)c4cc(F)cc(C(F)(F)F)c4)c3)c12`
71.7

Using known records, supply growth for `O=C1C(Cl)=C(Nc2ccc(S(=O)(=O)N3CCOCC3)cc2)C(=O)c2ccccc21`
86.8

Using known records, supply growth for `O=C(Cn1cc(CSc2nc3ccccc3o2)nn1)Nc1ccc(F)cc1F`
98.4

Using known records, supply growth for `C#CCOC(=O)/C=C/c1cn(-c2ccccc2)nc1-c1ccc(OC)cc1`
92

Entry source: PubChem BioAssay (NCI)
